Assay overview: Cyto-toxicity assay (MTT) in MT2 cells without virus
Format: cell-based
Experimental setup: human
Reported viability at 100 nM values are given for each entry in this list.
Give your result in % as a bare value.

Example entries and their recorded answers appear below.
{"columns": ["Compound", "Quantitative readout"],
 "data": [
  ["CC(C)(C)OC(=O)N1CCN(C(=O)[C@]23CC[C@@H](C4(C)CC4)[C@@H]2[C@H]2CC[C@@H]4[C@@]5(C)CC[C@H](OC(=O)[C@H]6C[C@@H](C(=O)O)C6(C)C)C(C)(C)[C@@H]5CC[C@@]4(C)[C@]2(C)CC3)CC1", 85],
  ["CC(C)(CC(=O)O[C@H]1CC[C@]2(C)[C@H]3CC[C@@H]4[C@H]5[C@H](C6(C)CC6)CC[C@]5(C(=O)N5CCCCC5)CC[C@@]4(C)[C@]3(C)CC[C@H]2C1(C)C)C(=O)O", 100],
  ["C=C(C)[C@@H]1CC[C@]2(C(=O)N[C@@H]3C[C@H](C(=O)N4CCCCC4)C3(C)C)CC[C@]3(C)[C@H](CC[C@@H]4[C@@]5(C)CC[C@H](OC(=O)CC(C)(C)C(=O)OCOC)C(C)(C)[C@@H]5CC[C@]43C)[C@@H]12", 82],
  ["[2H]C([2H])([2H])C(CC(=O)O[C@H]1CC[C@]2(C)[C@H]3CC[C@@H]4[C@H]5[C@H](C(=C)C)CC[C@]5(C(=O)N[C@@H]5C[C@H](C(=O)N6CCCCC6)C5(C)C)CC[C@@]4(C)[C@]3(C)CC[C@H]2C1(C)C)(C(=O)O)C([2H])([2H])[2H]", 83],
  ["COCCOCCOC1CCN(C(=O)[C@]23CC[C@@H](C4(C)CC4)[C@@H]2[C@H]2CC[C@@H]4[C@@]5(C)CC[C@H](OC(=O)[C@H]6C[C@@H](C(=O)O)C6(C)C)C(C)(C)[C@@H]5CC[C@@]4(C)[C@]2(C)CC3)CC1", 93],
  ["CC(C)(CC(=O)O[C@H]1CC[C@]2(C)[C@H]3CC[C@@H]4C5[C@H](C6(C)CC6)CC[C@]5(C(=O)N[C@H]5C[C@@H](C(=O)N6CCOCC6)C5(C)C)CC[C@@]4(C)[C@]3(C)CC[C@H]2C1(C)C)C(=O)O (stereo partly drawn)", 85]
]}

### Prompt Form field: reported viability at 100 nM of `CC1([C@@H]2CC[C@]3(C(=O)N4CCC(C(=O)NCCN5CCOCC5)CC4)CC[C@]4(C)[C@H](CC[C@@H]5[C@@]6(C)CC[C@H](OC(=O)[C@H]7C[C@@H](C(=O)O)C7(C)C)C(C)(C)[C@@H]6CC[C@]54C)[C@@H]23)CC1`
### Response 86
